test: Ratio of Drug level in healthy human lung epithelial lining fluid to drug level in healthy human plasma at 400 mg, po every 12 hrs for 7 days measured after 8 hrs of last dose; assay type: ADME, organism-based
attribute measured: Kp at 8 h
Would you mind answering with just the numeric figure?

Please look up its Kp at 8 h: CC[C@@H]([C@H](C)O)n1ncn(-c2ccc(N3CCN(c4ccc(OC[C@@H]5CO[C@@](Cn6cncn6)(c6ccc(F)cc6F)C5)cc4)CC3)cc2)c1=O
0.95

====

experiment: Drug level in healthy human alveolar cell at 400 mg, po every 12 hrs for 7 days measured after 3 hrs of last dose; assay type: ADME, organism-based, Pneumocyte; conditions: alveolar cells, read-out: Drug uptake
attribute measured: concentration at 3 h (ng/mL)
Write the value in ng/mL as a bare number.

Consider the molecule CC[C@@H]([C@H](C)O)n1ncn(-c2ccc(N3CCN(c4ccc(OC[C@@H]5CO[C@@](Cn6cncn6)(c6ccc(F)cc6F)C5)cc4)CC3)cc2)c1=O and give its measured concentration at 3 h.
46200
